target: UniProtKB P0DTD1; experiment: PL^pro enzymatic inhibition assay (FRET-based, Z-RLRGG-AMC substrate); format: biochemical; settings: Table 1 thiazole series; enzymatic inhibition assay, 25 °C, pH 7.5; uncertainty approx. 1.8-fold of Kd
RECORDED_METRIC: Kd

Request: Item Cc1ccc(N(CCC(=O)O)c2nc(-c3ccc(C#N)cc3)c(/C=N\Nc3ccccc3)s2)cc1 [Compound 27c] with UniProtKB P0DTD1 - Kd?
Result: 15 µM

Request: Now give it for CC(=O)c1sc(N(CCC(=O)O)c2cccc3ccccc23)nc1C [Compound 19] too.
Result: ≥ 50 µM

Request: What do you get for O=C(O)CCN(c1nc(CCl)cs1)c1cccc2ccccc12 [Compound 9] ?
Result: ≥ 50 µM

Request: Cc1ccc(N(CCC(=O)O)c2nc(-c3ccc(Cl)cc3)c(/C=N\Nc3ccccc3)s2)cc1 [Compound 27a] ?
Result: 35 µM

Request: Also O=C(O)CCN(c1nc(-c2ccc(Br)cc2)cs1)c1cccc2ccccc12 [Compound 6a] ?
Result: ≥ 50 µM

----------
Exercise: for every item that follows, state its recorded Kd.
target: SARS-CoV-2 PL^pro (Severe acute respiratory syndrome coronavirus 2, UniProt P0DTD1); assay: PL^pro enzymatic inhibition assay (FRET-based, Z-RLRGG-AMC substrate); type: biochemical; conditions: Table 2 disulfide compounds; enzymatic inhibition assay, 25 °C, pH 7.5; PL^pro dialyzed to avoid DTT
Record the value in µM, omitting the unit from your answer.

Request: // Kd lookup, key: "O=C(CNc1ccccc1SSc1ccccc1NCC(=O)c1ccccc1)c1ccccc1"
Result: 1.9

Request: // same read-out, input: "O=C(CCNc1ccccc1SSc1ccccc1NCCC(=O)N/N=C/c1cccs1)N/N=C/c1cccs1"
Result: 2.5

Request: Would you kindly repeat that for "O=C(O)CCNc1ccccc1SSc1ccccc1NCCC(=O)O" ?
Result: 2

Request: Next molecule: "O=C1CCN(c2ccccc2SSc2ccccc2N2CCC(=O)NC2=O)C(=O)N1"
Result: 0.63

Request: What do you get for "Nc1ccccc1SSc1ccccc1N" ?
Result: 0.54

Request: Can you handle "Cc1ccc(C)n1NC(=O)CCNc1ccccc1SSc1ccccc1NCCC(=O)Nn1c(C)ccc1C" next?
Result: 1.9

Request: Entry to check: "NNC(=O)CCNc1ccccc1SSc1ccccc1NCCC(=O)NN"
Result: 0.43

----------
molecular target: SARS-CoV-2 PL^pro (Severe acute respiratory syndrome coronavirus 2); assay: PL^pro enzymatic inhibition assay (FRET-based, Z-RLRGG-AMC substrate); assay type: biochemical; details: Table 1 thiazole series; enzymatic inhibition assay, 25 °C, pH 7.5; uncertainty approx. 1.8-fold of Kd
Field 'label' (enum: 1 (yes) / 0 (no)). Set to 1 (yes) when Kd is strictly under 30 µM; else 0 (no).

Request: Consider the compound Cc1ccc(N(CCC(=O)O)c2nc(-c3ccc(C#N)cc3)c(/C=N\NC(N)=S)s2)cc1 [Compound 28] . Is its Kd strictly less than 30 µM?
Result: 1 (yes)

Request: Repeat with O=C(O)CCN(C1=NC(=O)CS1)c1cccc2ccccc12 [Compound 5]
Result: 0 (no)

Request: Please do the same for N#Cc1ccc(-c2csc(N(CCC(=O)O)c3cccc4ccccc34)n2)cc1 [Compound 6e] as well.
Result: 1 (yes)

Request: # iterate: Cc1ccc(N(CCC(=O)O)c2nc(C)c(C(=O)C=Cc3ccc(Cl)cc3)s2)cc1 [Compound 25b]
Result: 0 (no)

Request: Thanks! And O=C(O)CCN(c1nc(-c2ccc(Cl)c(Cl)c2)cs1)c1cccc2ccccc12 [Compound 7] ?
Result: 0 (no)

Request: Now consider Cc1nc(N(CCC(=O)O)c2cccc3ccccc23)sc1C(=O)O [Compound 18] .
Result: 0 (no)

Request: Moving on to O=C(O)CCN(C1=NC(=O)C(=Cc2ccc(Br)cc2)S1)c1cccc2ccccc12 [Compound 13a]
Result: 1 (yes)

Request: And what about the compound Nc1ccc(N(CCC(=O)O)c2nc(-c3ccc(F)cc3)cs2)cc1 [Compound 30b] ?
Result: 0 (no)

Request: Note, next up: C/C(=N/Nc1ccccc1)c1sc(N(CCC(=O)O)c2cccc3ccccc23)nc1C [Compound 23]
Result: 0 (no)

Request: Now give it for Cc1ccc(N(CCC(=O)O)c2nc(C)c(C(=O)C=Cc3ccc(F)cc3)s2)cc1 [Compound 25c] too.
Result: 0 (no)

Request: Param item: O=C(O)CCN(c1nc(CNc2ccccc2)cs1)c1cccc2ccccc12 [Compound 12]
Result: 1 (yes)

Request: Same read-out for N#Cc1ccc(-c2csc(N(CCC(=O)O)c3ccc(N)cc3)n2)cc1 [Compound 30c] ?
Result: 0 (no)

Request: Next record, please: Nc1ccc(N(CCC(=O)O)c2nc(-c3ccc(Cl)cc3)cs2)cc1 [Compound 30a]
Result: 0 (no)

Request: Please give the result for Cc1nc(N(CCC(=O)O)c2cccc3ccccc23)sc1C(=O)/C=C/c1ccc(Cl)cc1 [Compound 21b] too.
Result: 1 (yes)

Request: Consider next the compound CCOC(=O)c1sc(N(CCC(=O)O)c2cccc3ccccc23)nc1C [Compound 20] in the same way.
Result: 1 (yes)

Request: Again, but for Cc1ccc(N(CCC(=O)O)c2nc(-c3ccc(F)cc3)c(/C=N\Nc3ccccc3)s2)cc1 [Compound 27b]
Result: 0 (no)

Request: Subsequent entry: Cc1nc(N(CCC(=O)O)c2cccc3ccccc23)sc1C(=O)/C=C/c1ccc(F)cc1 [Compound 21c]
Result: 0 (no)
